Dual specificity protein kinase CLK4 (Homo sapiens, UniProt Q9HAZ1): reported pIC50 for various compounds.
Sequence (Q9HAZ1 whole entry): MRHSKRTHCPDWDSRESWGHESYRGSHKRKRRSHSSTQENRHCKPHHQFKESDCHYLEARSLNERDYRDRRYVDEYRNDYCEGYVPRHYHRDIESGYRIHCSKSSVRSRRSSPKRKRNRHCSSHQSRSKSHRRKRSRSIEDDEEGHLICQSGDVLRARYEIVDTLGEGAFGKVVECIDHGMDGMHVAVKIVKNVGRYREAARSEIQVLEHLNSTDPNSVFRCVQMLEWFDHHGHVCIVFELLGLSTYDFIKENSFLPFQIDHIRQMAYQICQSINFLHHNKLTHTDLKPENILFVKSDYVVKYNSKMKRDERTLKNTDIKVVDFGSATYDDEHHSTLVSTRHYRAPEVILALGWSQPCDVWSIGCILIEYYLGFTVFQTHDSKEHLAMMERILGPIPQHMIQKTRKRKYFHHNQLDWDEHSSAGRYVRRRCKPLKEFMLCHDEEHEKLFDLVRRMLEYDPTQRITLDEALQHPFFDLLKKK
Scale explanation: pIC50 corresponds to minus log10 of a concentration expressed in moles per litre.

Task: Sample `Clc1ccc(CNc2nccc(-c3ccc4c(c3)OCCO4)n2)cc1Cl` — what was its pIC50?
Output: 7.89

Task: Sample `COc1cccc(-c2ccnc(NCc3ccc(Cl)c(Cl)c3)n2)c1` — what was its pIC50?
Output: 5.41

Task: Sample `FC(F)(F)c1cccc(Nc2nccc(-c3ccc4c(c3)OCO4)n2)c1` — what was its pIC50?
Output: 7.38

Task: Sample `c1cncc(CNc2nccc(-c3ccc4c(c3)OCO4)n2)c1` — what was its pIC50?
Output: 7.80

Task: Sample `c1cncc(CNc2ccnc(-c3ccc4[nH]ncc4c3)n2)c1` — what was its pIC50?
Output: 6.24

Task: Sample `Clc1cc(Cl)cc(CNc2ncncc2-c2ccc3c(c2)OCO3)c1` — what was its pIC50?
Output: 7.17

Task: Sample `c1cncc(CNc2nccc(-c3ccc4[nH]ncc4c3)n2)c1` — what was its pIC50?
Output: 7.22

Task: Sample `COc1ccc(-c2ccnc(NCc3ccc(Cl)cc3)n2)cc1` — what was its pIC50?
Output: 6.50

Task: Sample `Clc1ccc(CNc2nccc(-c3ccc4c(c3)OCO4)n2)cc1Cl` — what was its pIC50?
Output: 7.85

Task: Sample `Clc1ccc(CNc2ncncc2-c2ccc3c(c2)OCO3)cc1` — what was its pIC50?
Output: 5.03

Task: Sample `COc1ccc(-c2ccnc(NCc3ccc(Cl)c(Cl)c3)n2)cc1` — what was its pIC50?
Output: 7.04

Task: Sample `c1cc(-c2ccc3c(c2)OCO3)nc(Nc2ccc3c(c2)OCO3)n1` — what was its pIC50?
Output: 7.12

Task: Sample `Clc1ccc(CNc2nccc(-c3ccc4[nH]ncc4c3)n2)cc1Cl` — what was its pIC50?
Output: 7.52

Task: Sample `Brc1ccc(CNc2nccc(-c3ccc4c(c3)OCO4)n2)cc1Br` — what was its pIC50?
Output: 7.74

Task: Sample `Clc1ccc(CNc2nccc(-c3ccc4cn[nH]c4c3)n2)cc1Cl` — what was its pIC50?
Output: 6.91

Task: Sample `Brc1cc(Br)cc(CNc2nccc(-c3ccc4c(c3)OCO4)n2)c1` — what was its pIC50?
Output: 8.05

Task: Sample `FC(F)(F)c1cc(Br)cc(Nc2nccc(-c3ccc4c(c3)OCO4)n2)c1` — what was its pIC50?
Output: 7.07

Task: Sample `c1cncc(CNc2ccnc(-c3ccc4cn[nH]c4c3)n2)c1` — what was its pIC50?
Output: 5.89

Task: Sample `Clc1ccc(Nc2nccc(-c3ccc4c(c3)OCO4)n2)cc1` — what was its pIC50?
Output: 5.26

Task: Sample `COc1cccc(-c2ccnc(NCc3ccc(Cl)cc3)n2)c1` — what was its pIC50?
Output: 5.17

Task: Sample `Clc1ccc(CNc2ncncc2-c2ccc3c(c2)OCO3)cc1Cl` — what was its pIC50?
Output: 6.28

----------
EXPERIMENT NOTES: Metabolic stability in mouse liver microsomes assessed as compound remaining at 1 hr
Assay type: ADME, Microsome
TEST PARAMETERS: read-out: Stability
OBSERVABLE: remaining at 1 h (%)
Give just the number in %; leave the unit off.

Task: Sample `Clc1cc(Cl)cc(CNc2ncncc2-c2ccc3c(c2)OCO3)c1` — what was its remaining at 1 h?
Output: 0.54

----------
EXPERIMENT NOTES: Plasma protein binding in human at 10 uM
Assay type: ADME, cell-free
TEST PARAMETERS: read-out: PPB (converted)
OBSERVABLE: fraction unbound at 10 µM
Field format: numeric only.

Task: Sample `Clc1cc(Cl)cc(CNc2ncncc2-c2ccc3c(c2)OCO3)c1` — what was its fraction unbound at 10 µM?
Output: 0.0022

----------
MEASURED TARGET: Dual specificity tyrosine-phosphorylation-regulated kinase 1A (Homo sapiens, UniProt Q13627)
EXPERIMENT NOTES: Inhibition of DYRK1A (unknown origin) by bioluminescence assay
OBSERVABLE: IC50

A selection of reference data follows.
SMILES ENTRY: Cc1ccc(CNc2ccnc(-c3ccc4c(c3)OCO4)n2)cc1
RESULT: Not Active
//
SMILES ENTRY: CN(C)c1ccc(-c2nccc(NCc3ccc(Cl)c(Cl)c3)n2)cc1
RESULT: Not Active
//
SMILES ENTRY: Clc1ccc(CNc2ccnc(-c3ccc4c(c3)OCO4)n2)cc1Cl
RESULT: Not Active
//
SMILES ENTRY: COc1ccc(-c2nccc(NCc3ccc(C)cc3)n2)cc1
RESULT: Not Active
//
SMILES ENTRY: Cc1ccc(CNc2ccnc(-c3ccc(N(C)C)cc3)n2)cc1
RESULT: Not Active

Then this molecule:
Task: Sample `COc1ccc(-c2nccc(NCc3ccc(Cl)c(Cl)c3)n2)cc1` — what was its IC50?
Output: Not Active

----------
Would you kindly list IC50 for each of these compounds?
Give just the number in nM; leave the unit off.

Task: Form: Entry = `FC(F)(F)c1cccc(Nc2nccc(-c3ccc4c(c3)OCO4)n2)c1` | System = Dual specificity tyrosine-phosphorylation-regulated kinase 1B (Homo sapiens) | IC50 = ____
Output: 18

Task: Form: Entry = `c1cncc(CNc2nccc(-c3ccc4c(c3)OCO4)n2)c1` | System = Dual specificity tyrosine-phosphorylation-regulated kinase 1B (Homo sapiens) | IC50 = ____
Output: 12

Task: Form: Entry = `c1cncc(CNc2ccnc(-c3ccc4cn[nH]c4c3)n2)c1` | System = Dual specificity tyrosine-phosphorylation-regulated kinase 1B (Homo sapiens) | IC50 = ____
Output: 829

Task: Form: Entry = `Clc1cc(Cl)cc(CNc2ncncc2-c2ccc3c(c2)OCO3)c1` | System = Dual specificity tyrosine-phosphorylation-regulated kinase 1B (Homo sapiens) | IC50 = ____
Output: 1160

Task: Form: Entry = `Clc1ccc(Nc2nccc(-c3ccc4c(c3)OCO4)n2)cc1` | System = Dual specificity tyrosine-phosphorylation-regulated kinase 1B (Homo sapiens) | IC50 = ____
Output: 884

Task: Form: Entry = `Clc1ccc(CNc2nccc(-c3ccc4[nH]ncc4c3)n2)cc1Cl` | System = Dual specificity tyrosine-phosphorylation-regulated kinase 1B (Homo sapiens) | IC50 = ____
Output: 125

Task: Form: Entry = `COc1ccc(-c2ccnc(NCc3ccc(Cl)c(Cl)c3)n2)cc1` | System = Dual specificity tyrosine-phosphorylation-regulated kinase 1B (Homo sapiens) | IC50 = ____
Output: 411

----------
OBSERVABLE: IC50 (nM)
Give just the number in nM; leave the unit off.

Task: Form: Entry = `Clc1ccc(CNc2ncncc2-c2ccc3c(c2)OCO3)cc1` | System = Dual specificity protein kinase CLK2 (Homo sapiens) | IC50 = ____
Output: 8790

Task: Form: Entry = `c1cncc(CNc2nccc(-c3ccc4[nH]ncc4c3)n2)c1` | System = Dual specificity protein kinase CLK2 (Homo sapiens) | IC50 = ____
Output: 462

Task: Form: Entry = `Clc1cc(Cl)cc(CNc2nccc(-c3ccc4c(c3)OCO4)n2)c1` | System = Dual specificity protein kinase CLK2 (Homo sapiens) | IC50 = ____
Output: 23

Task: Form: Entry = `Clc1cc(Cl)cc(CNc2ncncc2-c2ccc3c(c2)OCO3)c1` | System = Dual specificity protein kinase CLK2 (Homo sapiens) | IC50 = ____
Output: 231

Task: Form: Entry = `Brc1ccc(CNc2nccc(-c3ccc4c(c3)OCO4)n2)cc1Br` | System = Dual specificity protein kinase CLK2 (Homo sapiens) | IC50 = ____
Output: 30

----------
MEASURED TARGET: Dual specificity tyrosine-phosphorylation-regulated kinase 1A (Homo sapiens, UniProt Q13627)
Would you kindly list pIC50 for each of these compounds?
Scale explanation: pIC50 corresponds to minus log10 of a concentration expressed in moles per litre.

Task: Sample `c1cncc(CNc2ccnc(-c3ccc4cn[nH]c4c3)n2)c1` — what was its pIC50?
Output: 5.84

Task: Sample `COc1ccc(-c2ccnc(NCc3ccc(Cl)cc3)n2)cc1` — what was its pIC50?
Output: 6.25

Task: Sample `COc1cccc(-c2ccnc(NCc3ccc(Cl)c(Cl)c3)n2)c1` — what was its pIC50?
Output: 5.33

Task: Sample `COc1cccc(-c2ccnc(NCc3ccc(Cl)cc3)n2)c1` — what was its pIC50?
Output: 5.20

Task: Sample `c1cncc(CNc2nccc(-c3ccc4[nH]ncc4c3)n2)c1` — what was its pIC50?
Output: 7.21

Task: Sample `Clc1ccc(CNc2nccc(-c3ccc4c(c3)OCCO4)n2)cc1Cl` — what was its pIC50?
Output: 7.74

Task: Sample `Clc1ccc(CNc2ccnc(-c3ccc4[nH]ncc4c3)n2)cc1Cl` — what was its pIC50?
Output: 5.63

Task: Sample `Clc1ccc(CNc2nccc(-c3ccc4c(c3)OCO4)n2)cc1Cl` — what was its pIC50?
Output: 7.59

Task: Sample `Clc1ccc(CNc2nccc(-c3ccc4cn[nH]c4c3)n2)cc1Cl` — what was its pIC50?
Output: 6.77

Task: Sample `Clc1ccc(CNc2ncncc2-c2ccc3c(c2)OCO3)cc1` — what was its pIC50?
Output: 5.34

Task: Sample `c1cncc(CNc2nccc(-c3ccc4c(c3)OCO4)n2)c1` — what was its pIC50?
Output: 8.15

Task: Sample `Clc1ccc(Nc2nccc(-c3ccc4c(c3)OCO4)n2)cc1` — what was its pIC50?
Output: 6.56

Task: Sample `Brc1ccc(CNc2nccc(-c3ccc4c(c3)OCO4)n2)cc1Br` — what was its pIC50?
Output: 7.10

Task: Sample `Clc1cc(Cl)cc(CNc2ncncc2-c2ccc3c(c2)OCO3)c1` — what was its pIC50?
Output: 6.55

Task: Sample `Clc1ccc(CNc2nccc(-c3ccc4[nH]ncc4c3)n2)cc1Cl` — what was its pIC50?
Output: 6.89

Task: Sample `FC(F)(F)c1cccc(Nc2nccc(-c3ccc4c(c3)OCO4)n2)c1` — what was its pIC50?
Output: 8.00

Task: Sample `FC(F)(F)c1cc(Br)cc(Nc2nccc(-c3ccc4c(c3)OCO4)n2)c1` — what was its pIC50?
Output: 6.97

Task: Sample `Clc1ccc(CNc2ncncc2-c2ccc3c(c2)OCO3)cc1Cl` — what was its pIC50?
Output: 5.46

Task: Sample `Brc1cc(Br)cc(CNc2nccc(-c3ccc4c(c3)OCO4)n2)c1` — what was its pIC50?
Output: 7.96

Task: Sample `c1cncc(CNc2ccnc(-c3ccc4[nH]ncc4c3)n2)c1` — what was its pIC50?
Output: 6.46

Task: Sample `COc1ccc(-c2ccnc(NCc3ccc(Cl)c(Cl)c3)n2)cc1` — what was its pIC50?
Output: 6.69

Task: Sample `c1cc(-c2ccc3c(c2)OCO3)nc(Nc2ccc3c(c2)OCO3)n1` — what was its pIC50?
Output: 7.60

Origin of measurements: ChEMBL document CHEMBL2390846
